Assay: Inhibition of mitogen-activated protein kinase p38 alpha
PROPERTY: IC50 (µM)
Write it as a number; the unit µM goes unstated.

What IC50 value was documented for this compound, CC(C)(CO)Nc1nccc(CCc2c[nH]c3ccccc23)n1 ?
1.5

What about this compound? O=C(Nc1ccc(Cl)c(COc2cccnc2)c1)c1ccccc1
30

What about this compound? Clc1nccc(CCc2c[nH]c3ccccc23)n1
120

What about this compound? c1ccc2c(c1)ccn2CCc1ccncc1
185

What about this compound? c1ccc2c(CCc3ccncn3)c[nH]c2c1
720

###

Test: Inhibition of p56 Lck tyrosine kinase
pIC50: −log10 of the molar value.
PROPERTY: pIC50

What pIC50 value was documented for this molecule, O=C(Nc1ccc(Cl)c(COc2cccnc2)c1)c1cc(F)cc(N2CCOCC2)c1 ?
< 5.00
